tested on: Plasmodium falciparum; experiment: Resistance index, ratio of IC50 for chloroquine-resistant, mefloquine-sensitive Plasmodium falciparum W2 to IC50 for mefloquine-resistant, chloroquine-sensitive Plasmodium falciparum D6; format: functional
Measured Ratio IC50 by item
assay.metric: Ratio IC50

{"compound": "Cl.Cl.Nc1nccc2ccc(NCc3ccccc3)cc12", "measured.value": 6.59}
{"compound": "OC(c1cc(C(F)(F)F)nc2c(C(F)(F)F)cccc12)C1CCCCN1 (stereo not drawn) [MEFLOQUINE]", "measured.value": 0.289}
{"compound": "Cl.Cl.Nc1nccc2ccc(NCc3cccc(C(F)(F)F)c3)cc12", "measured.value": 5.2}
{"compound": "Cl.Cl.Nc1nccc2ccc(NCc3cccc(Br)c3)cc12", "measured.value": 4.09}
{"compound": "Cl.Cl.Cl.Cl.Nc1nccc2ccc(NCc3ccc(Cl)c(Cl)c3)cc12", "measured.value": 6.58}
{"compound": "Cl.Cl.Cl.Nc1nccc2ccc(NCc3ccc(Cl)cc3)cc12", "measured.value": 5.67}
{"compound": "Nc1nc(N)c2cc(NCc3cccc(Br)c3)ccc2n1", "measured.value": 14.6}
{"compound": "Cl.Cl.Cl.Nc1nccc2ccc(NCc3cccc(Cl)c3)cc12", "measured.value": 5.55}

----------
tested on: Plasmodium falciparum; assay: Resistance index, ratio of IC50 for Plasmodium falciparum multidrug-resistant TM91C235 to IC50 for mefloquine-resistant, chloroquine-sensitive Plasmodium falciparum D6; format: functional

{"compound": "Cl.Cl.Nc1nccc2ccc(NCc3cccc(C(F)(F)F)c3)cc12", "Ratio IC50": 1.44}
{"compound": "Nc1nc(N)c2cc(NCc3cccc(Br)c3)ccc2n1", "Ratio IC50": 147}
{"compound": "OC(c1cc(C(F)(F)F)nc2c(C(F)(F)F)cccc12)C1CCCCN1 (stereo not drawn)", "Ratio IC50": 1.85}
{"compound": "Cl.Cl.Cl.Nc1nccc2ccc(NCc3cccc(Cl)c3)cc12", "Ratio IC50": 2.44}
{"compound": "Cl.Cl.Cl.Cl.Nc1nccc2ccc(NCc3ccc(Cl)c(Cl)c3)cc12", "Ratio IC50": 1.6}
{"compound": "Cl.Cl.Cl.Nc1nccc2ccc(NCc3ccc(Cl)cc3)cc12", "Ratio IC50": 2.78}
{"compound": "Cl.Cl.Nc1nccc2ccc(NCc3ccccc3)cc12", "Ratio IC50": 2.29}
{"compound": "Cl.Cl.Nc1nccc2ccc(NCc3cccc(Br)c3)cc12", "Ratio IC50": 1.38}

----------
test system: Plasmodium falciparum; assay: Antimalarial activity against multidrug-resistant Plasmodium falciparum TM91C235 assessed as inhibition of [3H]hypoxanthine uptake; assay type: functional, organism-based
pIC50: −log10 of the molar value.
Measured pIC50 by item

{"item.smiles": "Cl.Cl.Cl.Cl.Nc1nccc2ccc(NCc3ccc(Cl)c(Cl)c3)cc12", "tested.on": "Plasmodium falciparum", "pIC50": 6.95}
{"item.smiles": "Cl.Cl.Nc1nccc2ccc(NCc3cccc(C(F)(F)F)c3)cc12", "tested.on": "Plasmodium falciparum", "pIC50": 7.14}
{"item.smiles": "Cl.Cl.Cl.Nc1nccc2ccc(NCc3cccc(Cl)c3)cc12", "tested.on": "Plasmodium falciparum", "pIC50": 6.80}
{"item.smiles": "Cl.Cl.Nc1nccc2ccc(NCc3cccc(Br)c3)cc12", "tested.on": "Plasmodium falciparum", "pIC50": 6.85}

Hello, the source for this data is ChEMBL document CHEMBL1641438, in case you need it.
